Overview of reported log10(IC50) across a group of compounds:
experimental_system: MMP-13 (Homo sapiens, UniProt P45452)
Construct: catalytic domain (^104Tyr˜^267Gly) was amplified with RT-PCR; His-tag; enterokinase digestion-site
assay_comment: Assay for inhibitory activities on MMPs (fluorogenic peptide substrate), MMP-13
Lab note - IC50 converted to log10 from values in µM.

# compound, experimental_system, log10(IC50)
records = [
    ("COc1cccc(C(=O)Nc2ccc(-c3ccc(S(=O)(=O)N[C@H](Cc4ccccc4)C(=O)O)cc3)cc2)c1", "MMP-13 (Homo sapiens, UniProt P45452)", -1.30),
    ("CC(C)(C)[C@H](NS(=O)(=O)c1ccc(-c2ccc(NC(=O)c3cc4ccccc4s3)cc2)cc1)C(=O)O", "MMP-13 (Homo sapiens, UniProt P45452)", -2.00),
    ("COc1ccc2cc(C#Cc3ccc(-c4ccc(S(=O)(=O)N[C@@H](C(=O)O)c5ccc(O)cc5)cc4)cc3)ccc2c1", "MMP-13 (Homo sapiens, UniProt P45452)", -0.89),
    ("O=C(Nc1ccc(-c2ccc(S(=O)(=O)N[C@H](Cc3ccccc3)C(=O)O)cc2)cc1)c1ccc(F)c(F)c1", "MMP-13 (Homo sapiens, UniProt P45452)", -1.41),
]

GET /value?item= COc1ccc(C(=O)Nc2ccc(-c3ccc(S(=O)(=O)N[C@H](C)C(=O)O)cc3)cc2)cc1OC &field=log10(IC50) returns -1.30

###

experimental_system: MMP-12 (Homo sapiens, UniProt P39900)
Construct: In regard to MMP-12, catalytic domain (^100Phe˜^263Gly) was amplified with RT-PCR; His-tag; enterokinase digestion-site
Sequence (P39900 100-263): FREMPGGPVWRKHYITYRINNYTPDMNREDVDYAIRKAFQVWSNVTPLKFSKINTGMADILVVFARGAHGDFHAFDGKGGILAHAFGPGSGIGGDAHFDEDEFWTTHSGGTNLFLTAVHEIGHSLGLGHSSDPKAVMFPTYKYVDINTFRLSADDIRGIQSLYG
assay_comment: Assay for inhibitory activities on MMPs (fluorogenic peptide substrate), MMP-12
attribute_measured: log10 of IC50 (log10 of the value in nM)
Lab note - IC50 converted to log10 from values in nM.

The cases that follow already have their log10 of IC50 on record.
# structure_notation, log10 of IC50
data = [
    ("COc1ccc2cc(C#Cc3ccc(-c4ccc(S(=O)(=O)N[C@H](CCSC)C(=O)O)cc4)cc3)ccc2c1", 2.16),
    ("CC(C)C[C@@H](NS(=O)(=O)c1ccc(-c2ccc(C#Cc3ccc4ccccc4c3)cc2)cc1)C(=O)O", 2.56),
    ("Cc1ccc(C(=O)Nc2ccc(-c3ccc(S(=O)(=O)N[C@H](C)C(=O)O)cc3)cc2)cc1", 2.98),
    ("COc1cccc(C(=O)Nc2ccc(-c3ccc(S(=O)(=O)N[C@H](C)C(=O)O)cc3)cc2)c1", 3.01),
    ("COc1ccc(C(=O)Nc2ccc(-c3ccc(S(=O)(=O)N[C@@H](CCSC)C(=O)O)cc3)cc2)cc1OC", 2.37),
]

log10 of IC50 value, target or system MMP-12 (Homo sapiens, UniProt P39900), for COc1ccc2cc(C#Cc3ccc(-c4ccc(S(=O)(=O)N[C@@H](CCSC)C(=O)O)cc4)cc3)ccc2c1 : 2.07

log10 of IC50 value, target or system MMP-12 (Homo sapiens, UniProt P39900), for CSCC[C@H](NS(=O)(=O)c1ccc(-c2ccc(NC(=O)c3ccc4ccccc4c3)cc2)cc1)C(=O)O : 2.21

log10 of IC50 value, target or system MMP-12 (Homo sapiens, UniProt P39900), for O=C(Nc1ccc(-c2ccc(S(=O)(=O)N[C@H](Cc3ccccc3)C(=O)O)cc2)cc1)c1ccc2c(c1)OCO2 : 2.52

log10 of IC50 value, target or system MMP-12 (Homo sapiens, UniProt P39900), for COc1ccc2cc(C#Cc3ccc(-c4ccc(S(=O)(=O)N[C@@H](C(=O)O)C(C)C)cc4)cc3)ccc2c1 : 2.11

log10 of IC50 value, target or system MMP-12 (Homo sapiens, UniProt P39900), for O=C(O)[C@@H](Cc1ccccc1)NS(=O)(=O)c1ccc(-c2ccc(C#Cc3ccc4ccccc4c3)cc2)cc1 : 3.30

Every entry's value here was drawn from patent US20080119513A1.
